System: Human Serum Albumin (HSA)
PROTOCOL_NOTES: Binding to albumin, fluorescence quenching
MEASUREMENT_CONTEXT: human, human serum albumin solution (10 µM HSA), pH 7.4; calculated from association constant KS for albumin concentration in blood of 44 mg/mL (660 μM); read-out: free fraction (albumin)
Would you please tag the item Satisfied when its fraction unbound is 0.05 or above, and Not satisfied when it is below?

Challenge: For this compound, is measured fraction unbound 0.05 or higher? `O=C1C(=Cc2ccccc2)C(=O)c2ccccc21`
Response given: Not satisfied

Challenge: For this compound, is measured fraction unbound 0.05 or higher? `O=C1C(=CC2=Cc3cc(O)ccc3OC2)C(=O)c2ccccc21`
Response given: Satisfied

Challenge: For this compound, is measured fraction unbound 0.05 or higher? `O=C1C(=Cc2cccc3ccccc23)C(=O)c2ccccc21`
Response given: Satisfied

Challenge: For this compound, is measured fraction unbound 0.05 or higher? `O=C1C(=Cc2ccc(O)cc2)C(=O)c2ccccc21`
Response given: Not satisfied
